Assay: Pseudomonas biofilm growth suppression – PAO1 strain, BacTiter-Glo luminescence, LB-PBS, primary screen (AID 1144)
Details: P. aeruginosa PAO1 biofilm, 12 h, higher = more signal
OUTCOME MEASURE: z-score
One number for each entry.

Below are worked cases with known answers.
# COMPOUND, OUTCOME MEASURE, QUANTITATIVE RESULT
rows = [
    ("[N-]=[N+]=Nc1ccccc1C[C@@]1(C(=O)N2CCCCC2)N=C(c2ccc(OCCCO)cc2)O[C@@H]1c1ccccc1N=[N+]=[N-]", "z-score", 0.989),
    ("O=C(NCc1ccccc1)[C@@H]1c2ccccc2C(=O)N(C2Cc3ccccc3C2)[C@H]1c1ccc(CO)cc1", "z-score", 0.317),
    ("CN1C(=O)C2C=CC(C(O)C=Cc3ccc([N+](=O)[O-])cc3)N(Nc3ccccc3)C2C1=O (configuration not stated)", "z-score", -0.585),
    ("[N-]=[N+]=Nc1ccccc1C[C@]1(C(=O)N2CCCCC2)COC(c2ccc(OCCCO)cc2)=N1", "z-score", 1.38),
]

For each of the compounds below, state z-score.
1. COC(=O)[C@@]1(Cc2ccccc2)[C@H]2c3cc(C(=O)N4CCCC4)n(Cc4c(CO)[nH]cc(C)c4=O)c3C[C@H]2CN1C(=O)c1ccccc1
2. CC(CO)N1C(=O)[C@@H]2C3C(=O)OCCC/C=C\[C@H]3OC23C=CCN(CCN2CCOCC2)C(=O)[C@@H]13 (some centres not stated)

-0.0914
-1.1

For COc1ccc([Si](C)(C)[C@@H]2[C@@H](CC(=O)N3CCC[C@H]3CO)O[C@]3(C(=O)N(Cc4cccc(I)c4)c4ccccc43)[C@H]2C)cc1 , what is its reported z-score? 0.452

====

System: glycogen synthase kinase-3 (GSK3A per assay name; protocol says GSK3B)
Test: compounds binding glycogen synthase kinase-3 – biochemical, small-molecule microarray, 635 nm fluorescence, GSK3A, primary screen (AID 1103); also: the record names both GSK3A and GSK3B
Settings: fluorescence 635 nm, higher = more signal
Exercise: state measured composite z-score for each of the molecules provided.
One number for each entry.

# MOLECULE, TGT, composite z-score
rows = [
    ("CC(C)CCC[C@@H](C)[C@H]1CC[C@@]2(C)C3=C(CC[C@]12C)[C@@]1(C)CC[C@H](OC(=O)c2ccc(C(F)(F)F)nc2)C(C)(C)C1CC3 (stereo partly drawn)", "glycogen synthase kinase-3 (GSK3A per assay name; protocol says GSK3B)", 0.714),
    ("C=CCC(OC(C)=O)[C@@H]1[C@@H](N(Cc2cc3ccccc3o2)C(=O)Cc2ccc(OC)cc2)c2cc(OCCCO)ccc2N1C(=O)c1ccc2ccccc2c1 (stereo partly drawn)", "glycogen synthase kinase-3 (GSK3A per assay name; protocol says GSK3B)", -0.683),
    ("CCCC=C(CCC)[C@@H](NS(=O)(=O)c1ccc(Cl)cc1)c1ccc(C(=O)OC)cc1", "glycogen synthase kinase-3 (GSK3A per assay name; protocol says GSK3B)", 0.836),
    ("CN1C(=O)C2C=CC(C(O)c3ccccc3)N(N3CCCCC3)C2C1=O (stereo not drawn)", "glycogen synthase kinase-3 (GSK3A per assay name; protocol says GSK3B)", 0.83),
    ("COC(=O)C(CC#Cc1ccc2c(c1)[C@]1(C(=O)N2)[C@H](c2ccc(O)cc2)N2[C@H](c3ccccc3)[C@H](c3ccccc3)OC(=O)[C@H]2[C@@H]1C(=O)N1CCN(c2ncccn2)CC1)C(=O)OC", "glycogen synthase kinase-3 (GSK3A per assay name; protocol says GSK3B)", 1.03),
    ("COCCOC(=O)N1C(=O)[C@@]2(c3cc(C#CC4(O)CCCCCC4)ccc31)[C@H](C(=O)Nc1nc3ccccc3s1)[C@H]1C(=O)O[C@H](c3ccccc3)[C@H](c3ccccc3)N1[C@@H]2c1ccc(OCCO)cc1", "glycogen synthase kinase-3 (GSK3A per assay name; protocol says GSK3B)", 1.3),
    ("CCCC[C@@H]1C[C@H]1[C@@H](NC(=O)c1cccnc1)c1ccc(Cl)cc1", "glycogen synthase kinase-3 (GSK3A per assay name; protocol says GSK3B)", -2.37),
    ("CCCCN1CC=CC23O[C@@H]4C=CCOC(=O)[C@@H]4[C@H]2C(=O)N(CCCCCCO)[C@@H]3C1=O (stereo partly drawn)", "glycogen synthase kinase-3 (GSK3A per assay name; protocol says GSK3B)", -1),
]

For each of the molecules below, state composite z-score.
1. CCOC(=O)C[C@H]1[C@H](OC(=O)c2ccc(-c3ccccc3)cc2)[C@@H](NC(=O)c2ccccc2)c2cc(OCCCO)ccc2N1C(=O)c1ccc2ccccc2n1
2. C=CCOC(=O)[C@H]1[C@@H]2C(=O)O[C@@H](c3ccccc3)[C@@H](c3ccccc3)N2[C@@H](c2ccc(OCCOC(=O)[C@@H]3C[C@@H]4C(=O)N5CCC[C@H]5C(=O)N4[C@@H]3c3cccc(OCCO)c3)cc2)[C@]12C(=O)Nc1ccc(I)cc12
3. CCCCN1CC=CC23O[C@@H]4/C=C\CCCOC(=O)C4[C@H]2C(=O)N(CCCCCO)[C@@H]3C1=O (stereo partly drawn)
4. C=C(CCCC)/C(=C/C[C@@H](OC(C)=O)c1cccc(OCCO)c1)c1cnc2ccccc2c1

[0.538, 1.15, -1.34, -0.518]

For C=CCN1C(=O)[C@]2(Cc3ccccc3)N=C(c3ccc(OCCCO)cc3)O[C@@H]2c2ccccc21 , what is its reported composite z-score? 1.27
